System: A431
Test: A431 cell proliferation assay (CellTiter Glo, 72 hours)
Assay type: cell-based
Settings: Homo sapiens, A-431, 72 h, cell proliferation, A431, 72 hours, Table 2; read-out: A431 IC50
Experimental: Cell line: Ba/F3 cells with EGFR Δ19del/T790M/C797S mutation gene stably overexpressed named Ba/F3-Δ119del/T90M/C797S, and A431 and Ba/F3-EGFR wild-type cell line. RPMI 1640 and 10% FBS and 1% PS; DMEM and 10% FBS and 1% PS. […] c) Read luminous signal value with PerkinElmer reader, […] The data were analyzed by GraphPad Prism 6.0 software to obtain the fitting curve of compound activity. […]
Catalogue of pIC50 values
Quick note: pIC50 values are minus log10 of concentrations in mol/L.

>>> endpoint_value("COc1cnn(-c2ccc(Nc3nc(Nc4cc(OC)c(N5CCC(N(C)C)CC5)cc4C)ncc3Br)c(P(C)(C)=O)c2)c1")
5.98
>>> endpoint_value("CCc1cc(Nc2ncc(Br)c(Nc3ccc(-c4ccccc4)cc3P(C)(C)=O)n2)c(OC)cc1N1CCC(N2CCOCC2)CC1")
4.90
>>> endpoint_value("CCc1cc(Nc2ncc(Br)c(Nc3ccc(-c4nccs4)cc3P(C)(C)=O)n2)c(OC)cc1N1CCC(N2CCN(C)CC2)CC1")
6.00
>>> endpoint_value("CCc1cc(Nc2ncc(Br)c(Nc3ccc(-c4cnn(C)c4)cc3P(C)(C)=O)n2)c(OC)cc1N1CCC(N2CCCC2)CC1")
6.43
>>> endpoint_value("COc1cc(Nc2ncc(Br)c(Nc3ccc(-c4cnn(C)n4)c(F)c3P(C)(C)=O)n2)c(C)cc1N1CC(C)OC(C)C1 (stereo not drawn)")
5.12

Kindly review the next molecule as well.
Lab note: molecule `CCc1cc(Nc2ncc(Br)c(Nc3ccc(-c4ccc(C)nc4)cc3P(C)(C)=O)n2)c(OC)cc1N1CCC(N2CCN(C)CC2)CC1` tested on A431; recorded pIC50 was 5.79
